tested on: HeLa; assay: Cytotoxicity against human HeLa cells by MTT assay; format: functional, cell-based
Answer each item with its documented IC50.
Give bare numbers, in µM.

[
  {
    "Molecule": "C/C=C(\\C)C(=O)O[C@@H]1[C@@H]2OC[C@]3(C)[C@H](OC(C)=O)C[C@H](O)[C@@](C)([C@@H]23)[C@H]2C[C@H](O)O[C@H]3C[C@@H](C4=CCOC4=O)C(C)=C3[C@]12C [CHISONIMBOLININ D]",
    "Measured target": "HeLa",
    "Unit text": "µM",
    "IC50": 32
  }
]

Looking up C/C=C(\C)C(=O)O[C@@H]1[C@@H]2OC[C@]3(C)[C@H](OC(=O)/C(C)=C/C)C[C@H](O)[C@@](C)([C@@H]23)[C@H]2C[C@H](OC)O[C@H]3C[C@@H](C4=CCOC4=O)C(C)=C3[C@]12C [CHISONIMBOLININ C] , I found its IC50 recorded as 13
